molecular target: T1, human PD-1 expressed on cells (human, UniProt Q15116 25-288); assay: flow cytometry, CHO-S hPD-1
T1 construct: whole, on cells; cell line named under assay; also called CHO-S hPD-1; Raji PD-1
T1 sequence (Q15116 25-288): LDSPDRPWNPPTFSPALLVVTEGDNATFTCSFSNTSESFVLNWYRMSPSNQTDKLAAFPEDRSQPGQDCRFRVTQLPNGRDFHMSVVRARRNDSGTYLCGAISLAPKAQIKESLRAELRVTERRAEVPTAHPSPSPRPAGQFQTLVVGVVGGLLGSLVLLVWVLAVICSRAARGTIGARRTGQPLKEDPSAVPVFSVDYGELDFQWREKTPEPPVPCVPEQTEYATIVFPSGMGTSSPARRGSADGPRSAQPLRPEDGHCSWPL
property_measured: EC50 (nM)
Numbers only; they are read as nM.

The examples below pair each entry with its known result.
Sure, the documented EC50 for z1-XVT458 (antibody, human IgG1, kappa, V domains shown, hIgG1; also called GH + V067A) VH: QVQLVQSGAEVKKPGASVKVSCKASGYTFTNFYIHWVRQAPGQGLEWMGSIYPNYGDTAYNQKFKDRATMTTDTSTSTAYMELRSLRSDDTAVYYCARGYSYAMDYWGQGTTVTVSS VL: DIQMTQSPSSVSASVGDRVTITCSASQGISGDLNWYQQKPGKAPKLLIYHTSSLHSGVPSRFSGSGSGTDFTLTISSLQPEDFATYYCQYYSKDLLTFGGGTKLEIKR is 5.85

Sure, the documented EC50 for z4-XVT458 (antibody, human IgG1, kappa, V domains shown, hIgG1; numbering as for z1; also called GH + V067A + T071V) VH: QVQLVQSGAEVKKPGASVKVSCKASGYTFTNFYIHWVRQAPGQGLEWMGSIYPNYGDTAYNQKFKDRATMTVDTSTSTAYMELRSLRSDDTAVYYCARGYSYAMDYWGQGTTVTVSS VL: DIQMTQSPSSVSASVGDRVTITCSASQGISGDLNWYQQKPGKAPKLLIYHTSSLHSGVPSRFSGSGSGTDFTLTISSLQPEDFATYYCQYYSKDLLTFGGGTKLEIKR is 4.54

// next entry
Sure, the documented EC50 for z7-XVT458 (antibody, human IgG1, kappa, V domains shown, hIgG1; numbering as for z1; also called GH + V067A + T071V + T073K) VH: QVQLVQSGAEVKKPGASVKVSCKASGYTFTNFYIHWVRQAPGQGLEWMGSIYPNYGDTAYNQKFKDRATMTVDKSTSTAYMELRSLRSDDTAVYYCARGYSYAMDYWGQGTTVTVSS VL: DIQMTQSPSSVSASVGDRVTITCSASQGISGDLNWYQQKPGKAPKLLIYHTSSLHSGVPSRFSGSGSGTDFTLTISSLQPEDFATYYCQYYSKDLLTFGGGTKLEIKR is 3.88
